Known EC50 of a selection of molecules
biological target: 5HT2A (Homo sapiens); assay: Serotonin 5-HT2A in vitro cellular IPOne agonism assay; format: cell-based; design: host or cells: CHO-K1; details: CHO-K1 cells, IPOne HTRF; read-out: 5-HT2A IPOne Agonism Activity

`CN(C)CC(=O)n1ccc2ccccc21` yielded EC50 of > 10 µM

`COc1cc(F)c2c(ccn2CC(C)(C)N(C)C)c1` yielded EC50 of > 10 µM

`CN(C)CCn1ccc2cnccc21` yielded EC50 of > 10 µM

`COc1ccc2c(c1)CN(CCN(C)C)C2` yielded EC50 of > 10 µM

`C[C@H](Cn1ccc2cncnc21)N(C)C` yielded EC50 of > 10 µM

`COc1ncc2c(ccn2CC(C)(C)N(C)C)n1` yielded EC50 of > 10 µM

`COc1ccc2c(ccn2CCN(C)C)n1` yielded EC50 of > 10 µM

`COc1cc2ccn(CC(C)(C)N(C)C)c2cc1F` yielded EC50 of > 10 µM

###

target: 5HT2A (Homo sapiens, UniProt P28223); assay: Serotonin 5-HT2A in vitro radioligand binding competition assay ([3H]-DOI); parameters: purchased Epics Therapeutics S.A. (Belgium) FAST-0505B; conditions: [3H]-DOI competition, membrane extracts; read-out: 5-HT2A Radioligand Binding Activity
Sequence (P28223 whole entry): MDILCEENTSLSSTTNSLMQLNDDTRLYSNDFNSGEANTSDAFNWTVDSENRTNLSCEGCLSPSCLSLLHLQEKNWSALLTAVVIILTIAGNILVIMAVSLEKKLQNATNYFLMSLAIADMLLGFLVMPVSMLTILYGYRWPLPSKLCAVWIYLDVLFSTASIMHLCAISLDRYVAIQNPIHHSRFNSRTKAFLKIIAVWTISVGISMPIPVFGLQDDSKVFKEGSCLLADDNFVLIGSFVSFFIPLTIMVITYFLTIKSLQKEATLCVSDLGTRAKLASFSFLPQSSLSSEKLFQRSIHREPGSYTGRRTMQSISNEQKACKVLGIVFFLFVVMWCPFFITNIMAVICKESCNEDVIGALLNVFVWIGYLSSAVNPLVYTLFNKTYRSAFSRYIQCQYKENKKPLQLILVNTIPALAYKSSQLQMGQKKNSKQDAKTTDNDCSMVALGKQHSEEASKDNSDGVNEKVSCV
measurementLabel: IC50

Some solved cases for reference:
COc1ccc2c(c1)CCCN2CCN(C)C 0.101 to 1 µM
COc1ccc2c(ccn2CC2(N(C)C)CC2)c1 > 10 µM
C[C@H](Cn1ccc2cncnc21)N(C)C > 10 µM
CN[C@H](C)Cn1ccc2nc(OC)ccc21 > 10 µM
COc1cc2ccn(C[C@@H](C)N(C)C)c2cn1 > 10 µM
CN[C@H](C)Cn1ccc2cnccc21 > 10 µM

`COc1cnc2c(ccn2CCN(C)C)c1` yielded IC50 of 0.101 to 1 µM

`COc1cnc2c(ccn2C[C@@H](C)N(C)C)c1` yielded IC50 of > 10 µM

`CN(C)C(C)(C)Cn1ccc2cccc(F)c21` yielded IC50 of > 10 µM

`CN(C)C(C)(C)Cn1ccc2c(F)c(F)ccc21` yielded IC50 of > 10 µM

`COc1ccc2c(ccn2CC(C)(C)N(C)C)c1` yielded IC50 of > 10 µM

`CN(C)C(C)(C)Cn1ccc2cc(F)ccc21` yielded IC50 of > 10 µM

`COc1cc2ccn(CC(C)(C)N(C)C)c2cc1F` yielded IC50 of > 10 µM

`CN(C)C(C)(C)Cn1ccc2c(F)cccc21` yielded IC50 of > 10 µM

`CC(C)(N)Cn1ccc2c(F)c(F)ccc21` yielded IC50 of 1 to 10 µM

###

target: 5HT2A (Homo sapiens, UniProt P28223); test: Serotonin 5-HT2A in vitro cellular IPOne agonism assay; format: cell-based; design: host or cells: CHO-K1
pEC50: −log10 of the molar value.
Known pEC50 of a selection of compounds

Some solved cases for reference:
COc1ccc2c(ccn2C(=O)[C@@H](C)N(C)C)c1 < 5.00
C[C@H](C(=O)n1ccc2cc(F)ccc21)N(C)C < 5.00

Let's switch to this compound now.
Record `C[C@H](C(=O)n1ccc2ccccc21)N(C)C` ; system 5HT2A (Homo sapiens, UniProt P28223); pEC50 = < 5.00

###

biological target: 5HT2A (Homo sapiens, UniProt P28223); test: Serotonin 5-HT2A in vitro cellular IPOne agonism assay; format: cell-based; parameters: host or cells: CHO-K1; details: CHO-K1 cells, IPOne HTRF; read-out: 5-HT2A IPOne Agonism Activity
Known EC50 of a selection of compounds

CN[C@H](C)Cn1ccc2cc(OC)cnc21 [Example 35] yielded EC50 of > 10 µM

C[C@H](Cn1ccc2cnccc21)N(C)C [Example 39] yielded EC50 of > 10 µM

COc1cc2ccn(C[C@@H](C)N(C)C)c2cn1 [Example 33] yielded EC50 of > 10 µM

CN(C)C(C)(C)Cn1ccc2c(F)cccc21 [Example 18] yielded EC50 of > 10 µM

###

Known IC50 of a selection of compounds
Target: UniProt P28223
Test: Serotonin 5-HT2A in vitro radioligand binding competition assay ([3H]-DOI)
Set-up: purchased Epics Therapeutics S.A. (Belgium) FAST-0505B
Conditions: [3H]-DOI competition, membrane extracts; read-out: 5-HT2A Radioligand Binding Activity
Experimental: Serotonin 5-HT2A In Vitro Radioligand Binding Competition Assay. The 5-HT2A radioligand binding competition assay was performed at Epics Therapeutics S.A. (Belgium, FAST-0505B) using conventional methods. […] Nonspecific binding is determined by co-incubation with 200-fold excess of cold competitor. […] The plates are incubated 15 min on an orbital shaker and then counted with a TopCount™ for 1 min/well. […]

CN(C)CCn1ccc2cnccc21 > 10 µM
CN[C@H](C)Cn1ccc2cc(OC)cnc21 > 10 µM
COc1cnc2c(ccn2C[C@@H](C)N)c1 > 10 µM

Record `COc1cc2ccn(C[C@@H](C)N)c2cn1` ; system UniProt P28223; IC50 = 1 to 10 µM

###

target: 5HT2A (Homo sapiens, UniProt P28223); experiment: Serotonin 5-HT2A in vitro cellular IPOne agonism assay; type: cell-based; set-up: host or cells: CHO-K1; conditions: CHO-K1 cells, IPOne HTRF; read-out: 5-HT2A IPOne Agonism Activity
pEC50: −log10 of the molar value.
Known pEC50 of a selection of compounds

Some solved cases for reference:
compound	systemName	pEC50
Cc1cn(CC(C)(C)N(C)C)c2ccc(F)cc12 [Example 13]	5HT2A (Homo sapiens, UniProt P28223)	5.00 to 6.00
CN(C)C(C)(C)Cn1ccc2ccc(F)cc21 [Example 19]	5HT2A (Homo sapiens, UniProt P28223)	< 5.00
COc1ccc2c(ccn2CC(C)(C)N)c1 [Example 42]	5HT2A (Homo sapiens, UniProt P28223)	5.00 to 6.00
CN(C)CCn1ccc2cncnc21 [Example 6]	5HT2A (Homo sapiens, UniProt P28223)	< 5.00
COc1cnc2c(ccn2C[C@@H](C)N)c1 [Example 34]	5HT2A (Homo sapiens, UniProt P28223)	5.00 to 6.00
CN(C)CC(=O)n1ccc2cc(F)ccc21 [Example 43]	5HT2A (Homo sapiens, UniProt P28223)	< 5.00

COc1cc2ccn(CC(C)(C)N(C)C)c2cn1 [Example 22] yielded pEC50 of < 5.00

COc1ccc2c(ccn2C[C@@H](C)N)n1 [Example 28] yielded pEC50 of < 5.00

COc1cc2ccn(C[C@@H](C)N)c2cn1 [Example 31] yielded pEC50 of 5.00 to 6.00

Cc1cn(CC(C)(C)N)c2ccc(F)cc12 [Example 40] yielded pEC50 of 5.00 to 6.00

COc1ccc2c(c1)CCN2CCN(C)C [Example 8] yielded pEC50 of < 5.00

###

target: UniProtKB P28223; assay: Serotonin 5-HT2A in vitro radioligand binding competition assay ([3H]-DOI); parameters: purchased Epics Therapeutics S.A. (Belgium) FAST-0505B; settings: [3H]-DOI competition, membrane extracts; read-out: 5-HT2A Radioligand Binding Activity
pIC50: −log10 of the molar value.
measurementLabel: pIC50

Some solved cases for reference:
COc1ccc2c(c1)CN(CCN(C)C)C2 5.00 to 6.00
COc1cc2ccn(CC(C)(C)N(C)C)c2cn1 < 5.00

Let's switch to this compound now.
`COc1cc(F)c2c(ccn2CC(C)(C)N(C)C)c1` yielded pIC50 of < 5.00

###

Known EC50 of a selection of compounds
molecular target: 5HT2A (Homo sapiens); test: Serotonin 5-HT2A in vitro cellular IPOne agonism assay; format: cell-based; set-up: host or cells: CHO-K1; settings: CHO-K1 cells, IPOne HTRF; read-out: 5-HT2A IPOne Agonism Activity

COc1ccc2c(ccn2CC(C)(C)N(C)C)c1 > 10 µM

`COc1ccc2c(ccn2[C@H]2C[C@@H](N(C)C)C2)c1` yielded EC50 of > 10 µM

`CN[C@H](C)Cn1ccc2nc(OC)ccc21` yielded EC50 of > 10 µM

`COc1cnc2c(ccn2CCN(C)C)c1` yielded EC50 of > 10 µM

`COc1ccc2c(ccn2CC(C)(C)N(C)C)c1F` yielded EC50 of > 10 µM

`CN[C@H](C)Cn1ccc2cc(OC)ncc21` yielded EC50 of > 10 µM

`CN[C@H](C)Cn1ccc2cnccc21` yielded EC50 of > 10 µM

`COc1cc2ccn(CCN(C)C)c2cn1` yielded EC50 of > 10 µM

`COc1cnc2c(ccn2C[C@@H](C)N(C)C)c1` yielded EC50 of > 10 µM

`COc1ccc2c(ccn2[C@H]2C[C@H](N(C)C)C2)c1` yielded EC50 of > 10 µM

`COc1ccc2c(ccn2CC2(N(C)C)CC2)c1` yielded EC50 of > 10 µM

`COc1ccc2c(ccn2CC(C)(C)N(C)C)n1` yielded EC50 of > 10 µM

`CN(C)C(C)(C)Cn1ccc2c(F)c(F)ccc21` yielded EC50 of > 10 µM

`COc1ccc2c(ccn2C(=O)CN(C)C)c1` yielded EC50 of > 10 µM
